Below, each of the sequences is paired with its reported phosphorylation enrichment value.
# TARGET OF ASSAY: MERTK (UniProt Q12866)
# Sequence (Q12866 whole entry, looked up): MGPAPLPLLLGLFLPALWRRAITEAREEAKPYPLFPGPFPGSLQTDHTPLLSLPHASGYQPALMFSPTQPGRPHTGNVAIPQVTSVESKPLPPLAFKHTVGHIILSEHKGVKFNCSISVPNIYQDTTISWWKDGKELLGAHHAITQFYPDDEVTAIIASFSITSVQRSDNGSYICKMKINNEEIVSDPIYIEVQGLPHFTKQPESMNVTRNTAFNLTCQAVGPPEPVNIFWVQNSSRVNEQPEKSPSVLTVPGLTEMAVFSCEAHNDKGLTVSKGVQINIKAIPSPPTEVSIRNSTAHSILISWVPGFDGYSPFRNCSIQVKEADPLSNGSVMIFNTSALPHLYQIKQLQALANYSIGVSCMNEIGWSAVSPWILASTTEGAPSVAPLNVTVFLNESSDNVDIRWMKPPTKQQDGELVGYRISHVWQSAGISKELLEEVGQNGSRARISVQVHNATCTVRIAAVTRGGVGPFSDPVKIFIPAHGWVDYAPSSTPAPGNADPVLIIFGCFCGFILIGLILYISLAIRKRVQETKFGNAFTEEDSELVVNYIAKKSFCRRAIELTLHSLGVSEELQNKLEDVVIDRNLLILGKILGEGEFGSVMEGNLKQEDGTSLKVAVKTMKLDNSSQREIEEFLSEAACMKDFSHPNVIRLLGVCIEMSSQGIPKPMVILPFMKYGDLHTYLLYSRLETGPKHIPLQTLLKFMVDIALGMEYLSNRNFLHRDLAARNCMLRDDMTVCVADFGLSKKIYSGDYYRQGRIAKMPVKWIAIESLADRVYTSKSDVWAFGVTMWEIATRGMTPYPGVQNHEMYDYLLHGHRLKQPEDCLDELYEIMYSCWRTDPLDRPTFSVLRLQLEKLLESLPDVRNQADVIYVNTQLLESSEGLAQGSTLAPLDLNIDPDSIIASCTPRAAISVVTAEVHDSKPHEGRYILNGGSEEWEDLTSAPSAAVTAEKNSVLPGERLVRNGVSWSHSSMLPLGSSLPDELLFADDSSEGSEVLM
# ASSAY DETAILS: phosphorylation enrichment, bacterial display (enrichment ratio); higher = better substrate or ligand; peptides without Tyr show the background;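 note: 11-residue human phosphosite peptides and single-mutation variants displayed on the E. coli surface, counted by deep sequencing, each peptide's frequency after selection divided by its frequency in the unselected input library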;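 note: frequency after pTyr selection over input frequency; kinase dosed for 20-30% of maximal phosphorylation in three min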

1. DVCKNYAKAKD [ALB_Y343_E345K]
0.51
2. ATPKGYETDAS [OTC_Y223_P225T]
0.421
3. VVTFSYKPAGN [RBL2_Y544_P547A]
0.367
4. ALAAPYVLFPS [CEFIP_Y1332_G1337S_YF]
2.01
5. SPFAVYRFFTF [RPGRIP1_Y826_YF]
0.45
6. ALERPYTSKHS [NANS_Y71]
0.442

Form field: phosphorylation enrichment recorded for VLVSQYEKLNA [AMZ2_Y26] with MERTK (UniProt Q12866) (enter value)
0.434

Let us now turn to GYRVYYTPDSR [PTPRF_Y451]
5.3

Let us now turn to PVQAAYKKVVA [HBB_Y131_Q132K]
0.578

Let us now turn to HGEAYYSEVKA [PAK5_Y182_P187A]
4.12

Let us now turn to RNDRVYQPLRD [CD3D_Y149_Q147R]
0.786

Let us now turn to GDEVEYMLVSF [GCLC_Y53]
0.473

Let us now turn to SESSYYKSLNL [NGEF_Y289_A286S]
0.913

Let us now turn to GELQGYDIMEP [MSH2_Y863_S860L]
0.419
